measuredOn: Testis-specific chromodomain protein Y 1 (Homo sapiens, UniProt Q9Y6F8)
Sequence (Q9Y6F8 whole entry, the tested form may be a part): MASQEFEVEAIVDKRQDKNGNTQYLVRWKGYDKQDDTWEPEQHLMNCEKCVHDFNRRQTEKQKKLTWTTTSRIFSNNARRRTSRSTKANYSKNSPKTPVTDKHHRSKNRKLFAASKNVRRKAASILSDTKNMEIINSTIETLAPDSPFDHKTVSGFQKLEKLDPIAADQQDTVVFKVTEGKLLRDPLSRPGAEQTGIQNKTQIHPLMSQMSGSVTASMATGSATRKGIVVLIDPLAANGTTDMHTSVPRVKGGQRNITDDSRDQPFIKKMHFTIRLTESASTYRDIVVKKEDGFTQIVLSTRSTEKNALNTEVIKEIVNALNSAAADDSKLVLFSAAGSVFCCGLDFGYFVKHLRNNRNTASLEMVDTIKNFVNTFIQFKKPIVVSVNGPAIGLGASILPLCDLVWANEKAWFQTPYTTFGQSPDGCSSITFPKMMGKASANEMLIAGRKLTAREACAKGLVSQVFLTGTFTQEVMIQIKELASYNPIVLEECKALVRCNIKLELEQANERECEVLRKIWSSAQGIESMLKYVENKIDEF
assayComment: Binding affinity to recombinant human N-terminal GST-tagged CDY1 (1 to 65 residues) expressed in Escherichia coli […] by SPR analysis
Below is a list of entries, each paired with its recorded pKd value.
Just so you know, pKd here is -log10 of the concentration in molar units; reply with that number alone.

Guide cases for pKd, answers given:
| compound | pKd |
| --- | --- |
| CC(C)N1C(=O)C(O)(CC(=O)c2ccco2)c2ccccc21 (stereo not drawn) | 4.21 |
| COc1cccc(C(=O)Cn2c(=O)oc3ccc(C#N)cc32)c1 | 4.38 |
| CN(C)c1ccc(C(=O)Cn2c(=O)oc3ccc(F)cc32)cc1 | 4.46 |
| COc1ccc2oc(=O)n(CC(=O)c3c[nH]c4ccccc34)c2c1 | 4.44 |
| COc1ccc2oc(=O)n(CC(=O)c3ccc(N(C)C)cc3)c2c1 | 5.57 |

Could you tell me which pKd is on file for O=C(Cn1c(=O)sc2cc([N+](=O)[O-])ccc21)c1ccc2ccccc2c1 ?
3.91

And what about the compound O=C(Cn1c(=O)oc2ccccc21)Nc1ccc2ccccc2c1 ?
4.69

And what about the compound COc1cccc(C(=O)Cn2c(=O)oc3ccc(OC)cc32)c1 ?
4.81

And what about the compound CN1C(=O)C(O)(CC(=O)c2cccc3ccccc23)c2ccccc21 (stereo not drawn) ?
4.61

And what about the compound COc1ccc2oc(=O)n(CC(=O)c3ccc4ccccc4c3)c2c1 ?
5.82

These entries and their values trace back to ChEMBL document CHEMBL4359913.
